Target: Prostaglandin E synthase (Homo sapiens, UniProt O14684)
Sequence (O14684 whole entry): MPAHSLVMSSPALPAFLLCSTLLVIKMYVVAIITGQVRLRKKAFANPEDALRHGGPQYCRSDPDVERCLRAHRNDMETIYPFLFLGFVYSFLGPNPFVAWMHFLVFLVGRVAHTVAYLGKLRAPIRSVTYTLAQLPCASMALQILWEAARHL
Assay: Inhibition of mPGES-1 in human IL-1beta-stimulated A549 cell microsomes assessed as reduction of PGE2 formation from PGH2 after 15 mins
// values below are reported pIC50
In plain terms, pIC50 is the concentration in mol/L turned into minus its base-10 logarithm.

# count of solved cases: 3
INSERT INTO assay_data (molecule, recorded_endpoint, val) VALUES
  ('CCCC[C@@H](Sc1ccc(OCCCOc2cccc(C)c2C)cc1)C(=O)O', 'pIC50', 5.38),
  ('CCCCC(Sc1ccc(OCCCOc2ccc(Cl)c(C(F)(F)F)c2)cc1)C(=O)O (stereo unspecified)', 'pIC50', 5.77),
  ('CCCCC(Sc1ccc(OCCCOc2cccc3c2CCCC3)cc1)C(=O)O (stereo unspecified)', 'pIC50', 5.66);

Read the next record carefully.
INPUT: Which pIC50 value is on record for CCCCC(Sc1ccc(OCCCOc2cccc(C(C)C)c2)cc1)C(=O)O (stereo unspecified) ?
OUTPUT: 5.57

* * *

Target: Polyunsaturated fatty acid 5-lipoxygenase (Homo sapiens)
Sequence (whole entry): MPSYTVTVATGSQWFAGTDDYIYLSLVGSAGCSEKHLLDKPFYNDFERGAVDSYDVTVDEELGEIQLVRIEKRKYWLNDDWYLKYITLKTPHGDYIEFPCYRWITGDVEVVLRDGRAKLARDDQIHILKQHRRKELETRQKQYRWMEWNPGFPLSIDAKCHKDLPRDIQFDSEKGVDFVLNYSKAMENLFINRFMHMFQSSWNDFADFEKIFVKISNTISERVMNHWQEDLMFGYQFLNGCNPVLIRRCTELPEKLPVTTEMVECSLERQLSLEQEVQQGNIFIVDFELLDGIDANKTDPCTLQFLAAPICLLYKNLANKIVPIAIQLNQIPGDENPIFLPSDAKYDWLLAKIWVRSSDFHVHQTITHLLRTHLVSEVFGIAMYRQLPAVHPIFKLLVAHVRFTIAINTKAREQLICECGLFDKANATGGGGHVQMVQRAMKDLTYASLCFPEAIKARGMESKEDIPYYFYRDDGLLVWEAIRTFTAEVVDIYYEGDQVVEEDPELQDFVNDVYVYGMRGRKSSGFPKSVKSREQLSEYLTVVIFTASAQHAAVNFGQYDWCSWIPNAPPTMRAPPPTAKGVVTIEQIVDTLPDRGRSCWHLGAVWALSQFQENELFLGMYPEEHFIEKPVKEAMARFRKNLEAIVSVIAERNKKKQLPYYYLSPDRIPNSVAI
Experiment: Inhibition of 5-lipoxygenase in A23187-stimulated human PMNL assessed as residual activity by measuring enzyme product formation at 10 uM preincubated 15 mins by RP-HPLC analysis in presence of exogenous arachidonic acid
Recorded endpoint: Activity

INSERT INTO measurements (compound, val) VALUES
  ('Cc1cccc(OCCCOc2ccc(SCC(=O)O)cc2)c1C', '69.6%'),
  ('Cc1cccc(OCCCOc2ccc(CCC(=O)O)cc2)c1C', '80%'),
  ('CCCCC(Sc1ccc(OCCCOc2cccc3c2CCCC3)cc1)C(=O)OCC (configuration not stated)', '87.4%'),
  ('CCCCC(Sc1ccc(OCCCOc2ccc(-c3ccccc3)cc2)cc1)C(=O)OCC (configuration not stated)', '91.5%'),
  ('CCCCC(Sc1ccc(OCCCOc2ccccc2OC)cc1)C(=O)O (configuration not stated)', '57.4%');

INPUT: Which Activity value is on record for CCCCC(Sc1ccc(OCCCOc2ccc(Cl)cc2OC)cc1)C(=O)O (configuration not stated) ?
OUTPUT: 79.3%

INPUT: Which Activity value is on record for CCCCC(Sc1ccc(OCCCOc2ccc3ncccc3c2)cc1)C(=O)O (configuration not stated) ?
OUTPUT: 92.2%
